Attribution: patent US20260206761A1

tested on: green peach aphid (Myzus persicae); assay: Myzus persicae spray test; assay type: in vivo; conditions: 120 h, application rate 100 g/ha, after 5 days
measurement-type: mortality at 100 g/ha (%)
Your answer should be a plain number; it is taken to be in %.

What does the record list as mortality at 100 g/ha for C[C@H](NC(=O)c1cc(F)cc(S(C)(=O)=O)c1)c1nc(C2CC2)nn1-c1ncc(Cl)cn1 ?
100

Here is the next compound: Cc1nc([C@H](C)NC(=O)c2cc(C(F)F)cc(C3CC3)c2)n(-c2ccc(C#N)cn2)n1
90

Here is the next compound: C[C@H](NC(=O)c1cc(Cl)cc(S(C)(=O)=O)c1)c1nc(C2CC2)nn1-c1ncc(Cl)cn1
90

Here is the next compound: Cc1nc([C@H](C)NC(=O)c2cc(Cl)cc(S(=O)(=O)C(F)F)c2)n(-c2ccc(C#N)cn2)n1
100

Here is the next compound: CC(C)c1nc([C@H](C)NC(=O)c2cc(Cl)cc(S(=O)(=O)CC(F)(F)F)c2)n(-c2ccc(C#N)cn2)n1
90

Here is the next compound: Cc1nc([C@H](C)NC(=O)c2cc(C)n(C)n2)n(-c2ccc(C#N)cn2)n1
90

Here is the next compound: COc1nc([C@H](C)NC(=O)c2cc(OC(F)(F)F)cc(S(C)(=O)=O)c2)n(-c2ccc(Cl)cn2)n1
90

Here is the next compound: C[C@H](NC(=O)c1cc(Br)cc(S(C)(=O)=O)c1)c1ncnn1-c1ccc(C#N)cn1
100

Here is the next compound: COc1nc([C@H](C)NC(=O)c2cc(OC(F)(F)F)cc(S(C)(=O)=O)c2)n(-c2ncc(Cl)cn2)n1
100

Here is the next compound: CC(C)c1nc([C@H](C)NC(=O)c2cc(OC(F)(F)F)cc(C3CC3)c2)n(-c2ccc(C#N)cn2)n1
90

Here is the next compound: C[C@H](NC(=O)c1cc(F)cc(S(C)(=O)=O)c1)c1nc(C2CC2)nn1-c1ccc(C#N)cn1
90

Here is the next compound: C[C@H](NC(=O)c1cc(C#N)cc(C2CC2)c1)c1ncnn1-c1ncccn1
100

Here is the next compound: C[C@H](NC(=O)c1cc(OC(F)(F)F)cc(C2CC2)c1)c1ncnn1-c1ccc(Cl)cn1
100

Here is the next compound: C[C@H](NC(=O)c1cc(OC(F)(F)F)cc(S(=O)(=O)C2CC2)c1)c1nc(C2CC2)nn1-c1ncc(Cl)cn1
100

Here is the next compound: C[C@H](NC(=O)c1cc(C2CC2)cc(C(F)(F)F)c1)c1ncnn1-c1ccc(C#N)cn1
90

Here is the next compound: Cc1nc([C@H](C)NC(=O)c2cc(OC(F)F)cc(C3CC3)c2)n(-c2ccc(C#N)cn2)n1
100

Here is the next compound: C[C@H](NC(=O)c1cc(OC(F)(F)F)cc(S(C)(=O)=O)c1)c1nc(C2CC2)nn1-c1ncc(Cl)cn1
90

Here is the next compound: C[C@H](NC(=O)c1cc(Cl)cc(S(C)(=O)=O)c1)c1ncnn1-c1ncc(OC(F)F)cn1
90

Here is the next compound: CSc1cc(C#N)cc(C(=O)N[C@@H](C)c2ncnn2-c2ccc(C#N)cn2)c1
100

Here is the next compound: COc1nc([C@H](C)NC(=O)c2cc(OC(F)(F)F)cc(S(=O)(=O)C3CC3)c2)n(-c2ncc(Cl)cn2)n1
90

Here is the next compound: C[C@H](NC(=O)c1cc(C(F)(F)F)cc(S(C)(=O)=O)c1)c1nc(Br)nn1-c1ncccn1
90

Here is the next compound: C[C@H](NC(=O)c1cc(C#N)cc(S(C)(=O)=O)c1)c1ncnn1-c1ccc(Cl)cn1
90

Here is the next compound: C[C@H](NC(=O)c1cc(C#N)cc([S+](C)[O-])c1)c1ncnn1-c1ccc(C#N)cn1 (stereo partly drawn)
90

Here is the next compound: Cc1nc([C@H](C)NC(=O)c2cc(C(F)(F)F)cc(C3(C#N)CC3)c2)n(-c2ccc(Cl)cn2)n1
100

Here is the next compound: CC(NC(=O)c1cc(C(F)(F)F)cc(S(C)(=O)=O)c1)c1nc(Br)nn1-c1ncccn1 (stereo not drawn)
90

Here is the next compound: COc1nc([C@H](C)NC(=O)c2cc(C(F)F)cc(S(=O)(=O)C3CC3)c2)n(-c2ccc(Cl)cn2)n1
90

Here is the next compound: C[C@H](NC(=O)c1cc(C#N)cc(S(C)(=O)=O)c1)c1ncnn1-c1ccc(C#N)cn1
90

Here is the next compound: C[C@H](NC(=O)c1cc(C(F)F)cc(S(C)(=O)=O)c1)c1nc(C2CC2)nn1-c1ncc(Cl)cn1
90

Here is the next compound: Cc1nc([C@H](C)NC(=O)c2cc(C(F)(F)F)cc(S(C)(=O)=O)c2)n(-c2ccc(C#N)cn2)n1
90

Here is the next compound: C[C@H](NC(=O)c1cc(C(F)(F)F)cc(C2(C#N)CC2)c1)c1ncnn1-c1ccc(C#N)cn1
100
